B1: HEEH_KT_rd6_0007 (parent)
chain: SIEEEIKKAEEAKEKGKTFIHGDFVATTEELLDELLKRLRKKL

Variants of: B1
Assay: folding stability dG (cDNA display proteolysis); higher = more stable
Conditions: PBS, room temperature
Rule: folding stability dG under 0.8 kcal/mol gives 0, otherwise 1.

[[record]]
mutation_code = "L35E"
assigned_class = 0

[[record]]
mutation_code = "L31K"
assigned_class = 0

[[record]]
mutation_code = "E10H"
assigned_class = 1

[[record]]
mutation_code = "L43A"
assigned_class = 0

[[record]]
mutation_code = "T28K"
assigned_class = 0

[[record]]
mutation_code = "D33C"
assigned_class = 1

[[record]]
mutation_code = "T18R"
assigned_class = 1

[[record]]
mutation_code = "L43C"
assigned_class = 1

[[record]]
mutation_code = "F19R"
assigned_class = 0

[[record]]
mutation_code = "L43P"
assigned_class = 0

[[record]]
mutation_code = "A12D"
assigned_class = 0

[[record]]
mutation_code = "I20E"
assigned_class = 1

[[record]]
mutation_code = "L31Y"
assigned_class = 0

[[record]]
mutation_code = "E5Q"
assigned_class = 1

[[record]]
mutation_code = "T28Q"
assigned_class = 0

[[record]]
mutation_code = "K37V"
assigned_class = 1

[[record]]
mutation_code = "K13M"
assigned_class = 1

[[record]]
mutation_code = "T27C"
assigned_class = 1

[[record]]
mutation_code = "R38Q"
assigned_class = 1

[[record]]
mutation_code = "E30V"
assigned_class = 1

[[record]]
mutation_code = "T28A"
assigned_class = 1

